FYI, the data here is from the supplement of paper PMC9112550.

Tested on: Escherichia coli TOP10;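 also: peptides expressed intracellularly from a pBAD plasmid library in pooled LB shake-flask culture, induced with 0.3% L-arabinose, DNA abundance read by NGS, three biological replicates, DESeq2 with apeglm shrinkage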
Procedure text: shrunken log2 fold change of peptide-encoding DNA abundance (4.5 h post-induction vs induction); higher = less antimicrobial activity (less host growth inhibition)
Condition label: time post-induction: 4.5 h; library: site-saturation at positions 5, 18, 19, 20
# shrunken log2 fold change per entry
Measured metric: shrunken log2 fold change

> print(dat)
           sequence.content   result
 1  RRIRCRPPRLPRPRPRPIEIPRP   -0.223
 2  RRIRCRPPRLPRPRPRPPAVPRP    0.645
 3  RRIRSRPPRLPRPRPRPCDHPRP   -0.138
 4  RRIRNRPPRLPRPRPRPNCDPRP   -0.237
 5  RRIRKRPPRLPRPRPRPCIFPRP  -0.0101
 6  RRIRKRPPRLPRPRPRPVTCPRP  -0.0146
 7  RRIRARPPRLPRPRPRPSVYPRP   -0.138
 8  RRIRQRPPRLPRPRPRPAIQPRP   -0.679
 9  RRIRTRPPRLPRPRPRPKESPRP   0.0841
10  RRIRVRPPRLPRPRPRPCFMPRP   -0.302
11  RRIRDRPPRLPRPRPRPSEYPRP  -0.0118
12  RRIRGRPPRLPRPRPRPKVEPRP    0.615
13  RRIRIRPPRLPRPRPRPCKPPRP    -0.19
14  RRIRHRPPRLPRPRPRPTIRPRP   -0.689
15  RRIRDRPPRLPRPRPRPEHEPRP    0.017
